molecular target: gelatinase A (Homo sapiens); construct: endogenous in cells; host or cells: human normal skin dermal fibroblasts (HNDF); experiment: Inhibitory activity against gelatinase A (FITC-gelatin degradation, fluorescence); assay type: biochemical; conditions: progelatinase A purified from human normal skin dermal fibroblasts (HNDF), activated with APMA; 0.05 % FITC-gelatin, 2 hours at 37°C
Sequence (P08253 110-660): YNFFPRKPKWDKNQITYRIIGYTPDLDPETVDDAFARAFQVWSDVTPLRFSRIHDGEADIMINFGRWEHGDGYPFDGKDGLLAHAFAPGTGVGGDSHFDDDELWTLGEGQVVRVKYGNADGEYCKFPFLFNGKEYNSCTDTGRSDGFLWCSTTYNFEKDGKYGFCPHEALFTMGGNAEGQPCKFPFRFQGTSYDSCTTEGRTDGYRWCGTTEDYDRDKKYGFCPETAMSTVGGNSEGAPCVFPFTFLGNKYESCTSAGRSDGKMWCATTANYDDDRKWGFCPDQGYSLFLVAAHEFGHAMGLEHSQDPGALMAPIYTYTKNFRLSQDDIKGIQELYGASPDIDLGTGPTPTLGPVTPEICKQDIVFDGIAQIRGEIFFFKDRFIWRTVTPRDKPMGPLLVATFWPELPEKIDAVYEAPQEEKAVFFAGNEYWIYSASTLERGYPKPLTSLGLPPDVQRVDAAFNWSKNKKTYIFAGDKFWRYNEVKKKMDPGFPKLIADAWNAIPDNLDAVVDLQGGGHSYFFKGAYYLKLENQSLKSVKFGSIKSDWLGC
readoutKind: IC50 (nM)

See these solved cases before continuing.
(Q) For the molecule CCCCCC#Cc1ccc(S(=O)(=O)CC(C)C(=O)NO)cc1 (stereo not drawn) [Example 28] , what IC50 is on record?
(A) 13

(Q) Subsequent entry: O=C(O)CCS(=O)(=O)c1ccc(NC(=O)c2ccccc2)cc1 [Example 8(2)]
(A) 540

1. O=C(O)CCS(=O)(=O)c1ccc(C#Cc2ccccc2)cc1 [Example 8(7)]
2. CC(CS(=O)(=O)c1ccc(-c2cc3ccccc3o2)cc1)C(=O)NO (stereo not drawn) [Example 28(1)]
3. COc1ccc(S(=O)(=O)CC(NC(=O)C(NC(=O)OC(C)(C)C)c2ccccc2)C(=O)NO)cc1 (stereo not drawn) [Example 19(1)]
4. Cc1ccc(C#Cc2ccc(S(=O)(=O)CC(C)C(=O)NO)cc2)cc1 (stereo not drawn) [Example 28(3)]
(Q) Parameters: sort_field (IC50), sort_dir (desc). A ranking is expressed here by listing the labels in the requested order.
(A) 1, 3, 4, 2
